Every entry's value here was drawn from ChEMBL document CHEMBL2203106.

# PROTOCOL NOTES: Displacement of [3H]RX821002 from adrenergic alpha-2 receptor in porcine cerebral cortex homogenate after 60 mins by scintillation counting analysis
# Type: tissue-based, Sus scrofa
QUANTITY MEASURED: Ki

Solved cases below.
[[record]]
compound_structure = "COc1ccccc1N1CCN(Cc2ccc3cccccc2-3)CC1"
quantity_measured = "Ki"
recorded_value = "0.039 µM"

[[record]]
compound_structure = "COc1ccccc1N1CCN(Cc2cc(CN(C)C)c3cccccc2-3)CC1"
quantity_measured = "Ki"
recorded_value = "0.023 µM"

[[record]]
compound_structure = "COc1ccccc1N1CCN(Cc2cc(CN3CCN(c4ccccc4OC)CC3)c3cccccc2-3)CC1"
quantity_measured = "Ki"
recorded_value = "0.12 µM"

[[record]]
compound_structure = "COc1ccccc1N1CCN(Cc2cc(CN3CCOCC3)c3cccccc2-3)CC1"
quantity_measured = "Ki"
recorded_value = "0.22 µM"

[[record]]
compound_structure = "COc1ccccc1N1CCN(Cc2cc(CO)c3cccccc2-3)CC1"
quantity_measured = "Ki"
recorded_value = "0.044 µM"


stdin: Report Ki for COc1ccccc1N1CCN(Cc2cc(CN3CCN(C)CC3)c3cccccc2-3)CC1
stdout: 0.17 µM

stdin: Report Ki for COc1ccccc1N1CCN(Cc2cc(CN3CCCCC3)c3cccccc2-3)CC1
stdout: 0.14 µM

----------
# SYSTEM NAME: Histamine H4 receptor (Homo sapiens)
# Sequence (Q9H3N8 whole entry): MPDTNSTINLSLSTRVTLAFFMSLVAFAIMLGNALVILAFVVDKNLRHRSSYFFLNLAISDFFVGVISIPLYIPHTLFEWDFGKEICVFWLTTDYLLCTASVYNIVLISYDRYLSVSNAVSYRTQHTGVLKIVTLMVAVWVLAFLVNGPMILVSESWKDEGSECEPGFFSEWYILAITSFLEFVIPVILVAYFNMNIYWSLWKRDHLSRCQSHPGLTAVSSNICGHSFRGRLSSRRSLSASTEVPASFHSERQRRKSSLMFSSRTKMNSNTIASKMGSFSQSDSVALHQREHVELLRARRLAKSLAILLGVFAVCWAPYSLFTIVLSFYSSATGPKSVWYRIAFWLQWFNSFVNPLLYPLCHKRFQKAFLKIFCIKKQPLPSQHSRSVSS
QUANTITY MEASURED: Ki

stdin: Report Ki for COc1ccccc1N1CCN(Cc2cc(CN(C)C)c3cccccc2-3)CC1
stdout: > 10 µM

----------
pKi values recorded for D(4) dopamine receptor (Homo sapiens, UniProt P21917)
# reply with the number alone; pKi is -log10 of concentration in mol/L

Solved cases below.
[[record]]
compound_structure = "COc1ccccc1N1CCN(Cc2cc(CN(C)C)c3cccccc2-3)CC1"
system_name = "D(4) dopamine receptor (Homo sapiens, UniProt P21917)"
quantity_measured = "pKi"
recorded_value = 8.82

[[record]]
compound_structure = "COc1ccccc1N1CCN(Cc2cc(C#N)c3cccccc2-3)CC1"
system_name = "D(4) dopamine receptor (Homo sapiens, UniProt P21917)"
quantity_measured = "pKi"
recorded_value = 8.62

[[record]]
compound_structure = "COc1ccccc1N1CCN(Cc2cc(CN3CCCCC3)c3cccccc2-3)CC1"
system_name = "D(4) dopamine receptor (Homo sapiens, UniProt P21917)"
quantity_measured = "pKi"
recorded_value = 8.72


Now look at this entry.
stdin: Output reported pKi of the compound CCCC#Cc1cc(CN2CCN(c3ccccc3OC)CC2)c2cccccc1-2 on D(4) dopamine receptor (Homo sapiens, UniProt P21917).
Sequence (P21917 whole entry): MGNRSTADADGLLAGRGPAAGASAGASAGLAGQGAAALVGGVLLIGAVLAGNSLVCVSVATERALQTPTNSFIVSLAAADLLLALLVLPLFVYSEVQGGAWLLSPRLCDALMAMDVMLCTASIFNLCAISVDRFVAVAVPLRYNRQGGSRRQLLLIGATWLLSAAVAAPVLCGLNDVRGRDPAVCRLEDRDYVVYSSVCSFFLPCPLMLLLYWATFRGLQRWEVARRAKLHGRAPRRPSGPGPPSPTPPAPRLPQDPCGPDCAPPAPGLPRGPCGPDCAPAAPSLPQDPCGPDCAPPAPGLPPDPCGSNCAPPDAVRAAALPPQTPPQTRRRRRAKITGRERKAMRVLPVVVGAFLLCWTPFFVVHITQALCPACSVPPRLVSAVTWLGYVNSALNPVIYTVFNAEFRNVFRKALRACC
stdout: 7.72

----------
# SYSTEM NAME: 5-hydroxytryptamine receptor 2A (Sus scrofa, UniProt P50129)
# Sequence (P50129 whole entry): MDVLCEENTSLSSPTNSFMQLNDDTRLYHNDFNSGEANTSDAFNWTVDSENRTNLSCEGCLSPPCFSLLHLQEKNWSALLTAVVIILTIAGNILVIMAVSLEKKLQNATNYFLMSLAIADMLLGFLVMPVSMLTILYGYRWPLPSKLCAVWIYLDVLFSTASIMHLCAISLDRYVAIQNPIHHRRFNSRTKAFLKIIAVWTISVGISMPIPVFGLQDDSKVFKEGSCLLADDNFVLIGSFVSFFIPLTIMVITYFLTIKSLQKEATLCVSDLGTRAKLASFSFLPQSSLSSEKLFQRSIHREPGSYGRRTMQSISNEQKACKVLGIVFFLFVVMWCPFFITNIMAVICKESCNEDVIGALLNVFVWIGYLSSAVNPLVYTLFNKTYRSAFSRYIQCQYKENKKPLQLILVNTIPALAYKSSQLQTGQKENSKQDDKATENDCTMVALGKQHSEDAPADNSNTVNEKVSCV
# Ki per record follows
Respond numerically; units are nM and should not be typed.

Solved cases below.
[[record]]
compound_structure = "COc1ccccc1N1CCN(Cc2cc(CO)c3cccccc2-3)CC1"
recorded_value = 990

[[record]]
compound_structure = "COc1ccccc1N1CCN(Cc2cc(CN3CCN(c4ccccc4OC)CC3)c3cccccc2-3)CC1"
recorded_value = 560

[[record]]
compound_structure = "COc1ccccc1N1CCN(Cc2cc(CN(C)C)c3cccccc2-3)CC1"
recorded_value = 1800

[[record]]
compound_structure = "COc1ccccc1N1CCN(Cc2cc(CN3CCN(C)CC3)c3cccccc2-3)CC1"
recorded_value = 2100

[[record]]
compound_structure = "COc1ccccc1N1CCN(Cc2cc(CN3CCCCC3)c3cccccc2-3)CC1"
recorded_value = 1300


stdin: Output reported Ki of the molecule COc1ccccc1N1CCN(Cc2cc(C#Cc3ccccc3)c3cccccc2-3)CC1 on 5-hydroxytryptamine receptor 2A (Sus scrofa, UniProt P50129).
stdout: 1000

stdin: Output reported Ki of the molecule CCCC#Cc1cc(CN2CCN(c3ccccc3OC)CC2)c2cccccc1-2 on 5-hydroxytryptamine receptor 2A (Sus scrofa, UniProt P50129).
stdout: 1300

----------
# SYSTEM NAME: D(2) dopamine receptor (Homo sapiens)
# Sequence (P14416 whole entry): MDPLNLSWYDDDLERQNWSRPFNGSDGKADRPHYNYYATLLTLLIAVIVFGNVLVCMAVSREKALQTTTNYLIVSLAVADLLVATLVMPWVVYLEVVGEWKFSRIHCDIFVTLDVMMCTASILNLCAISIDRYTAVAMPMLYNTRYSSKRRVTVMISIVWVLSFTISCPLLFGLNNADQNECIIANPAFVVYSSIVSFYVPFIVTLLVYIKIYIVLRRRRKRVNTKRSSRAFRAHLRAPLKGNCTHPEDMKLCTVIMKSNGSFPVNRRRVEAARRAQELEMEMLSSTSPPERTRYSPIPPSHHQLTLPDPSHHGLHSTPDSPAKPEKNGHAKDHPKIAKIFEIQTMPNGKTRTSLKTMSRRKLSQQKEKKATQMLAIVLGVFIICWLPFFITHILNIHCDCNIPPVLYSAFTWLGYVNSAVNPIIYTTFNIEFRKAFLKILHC
# PROTOCOL NOTES: Displacement of [3H]spiperone from human dopamine D2long receptor expressed in CHO cells after 60 mins by scintillation counting analysis
# Format: cell-based
# Ki per record follows
Respond numerically; units are nM and should not be typed.

[[record]]
compound_structure = "C#Cc1cc(CN2CCN(c3ccccc3OC)CC2)c2cccccc1-2"
quantity_measured = "Ki"
recorded_value = 95

[[record]]
compound_structure = "COc1ccccc1N1CCN(Cc2cc(C#N)c3cccccc2-3)CC1"
quantity_measured = "Ki"
recorded_value = 8.3

[[record]]
compound_structure = "COc1ccccc1N1CCN(Cc2cc(C#Cc3ccccc3)c3cccccc2-3)CC1"
quantity_measured = "Ki"
recorded_value = 65

[[record]]
compound_structure = "COc1ccccc1N1CCN(Cc2cc(CN3CCCCC3)c3cccccc2-3)CC1"
quantity_measured = "Ki"
recorded_value = 51

[[record]]
compound_structure = "COc1ccccc1N1CCN(Cc2cc(CN(C)C)c3cccccc2-3)CC1"
quantity_measured = "Ki"
recorded_value = 210


stdin: Output reported Ki of the molecule COc1ccccc1N1CCN(Cc2cc(CN3CCOCC3)c3cccccc2-3)CC1 on D(2) dopamine receptor (Homo sapiens).
stdout: 130

stdin: Output reported Ki of the molecule COc1ccccc1N1CCN(Cc2cc(CN3CCN(C)CC3)c3cccccc2-3)CC1 on D(2) dopamine receptor (Homo sapiens).
stdout: 60

stdin: Output reported Ki of the molecule CCCC#Cc1cc(CN2CCN(c3ccccc3OC)CC2)c2cccccc1-2 on D(2) dopamine receptor (Homo sapiens).
stdout: 76

stdin: Output reported Ki of the molecule COc1ccccc1N1CCN(Cc2cc(CN3CCN(c4ccccc4OC)CC3)c3cccccc2-3)CC1 on D(2) dopamine receptor (Homo sapiens).
stdout: 17

stdin: Output reported Ki of the molecule COc1ccccc1N1CCN(Cc2ccc3cccccc2-3)CC1 on D(2) dopamine receptor (Homo sapiens).
stdout: 33

stdin: Output reported Ki of the molecule COc1ccccc1N1CCN(Cc2cc(CO)c3cccccc2-3)CC1 on D(2) dopamine receptor (Homo sapiens).
stdout: 150

----------
# PROTOCOL NOTES: Displacement of [3H]WAY100635 from 5-HT1A receptor in porcine cerebral cortex homogenate after 60 mins by scintillation counting analysis
# Format: tissue-based, Sus scrofa
# pKi per record follows
# reply with the number alone; pKi is -log10 of concentration in mol/L

Solved cases below.
[[record]]
compound_structure = "CCCC#Cc1cc(CN2CCN(c3ccccc3OC)CC2)c2cccccc1-2"
quantity_measured = "pKi"
recorded_value = 6.39

[[record]]
compound_structure = "COc1ccccc1N1CCN(Cc2cc(C#N)c3cccccc2-3)CC1"
quantity_measured = "pKi"
recorded_value = 6.96

[[record]]
compound_structure = "COc1ccccc1N1CCN(Cc2cc(CN3CCOCC3)c3cccccc2-3)CC1"
quantity_measured = "pKi"
recorded_value = 7.00

[[record]]
compound_structure = "COc1ccccc1N1CCN(Cc2cc(CN3CCN(c4ccccc4OC)CC3)c3cccccc2-3)CC1"
quantity_measured = "pKi"
recorded_value = 7.00

[[record]]
compound_structure = "COc1ccccc1N1CCN(Cc2ccc3cccccc2-3)CC1"
quantity_measured = "pKi"
recorded_value = 7.27


Now look at this entry.
stdin: Report pKi for COc1ccccc1N1CCN(Cc2cc(CN(C)C)c3cccccc2-3)CC1
stdout: 6.96

----------
# Ki per record follows
# PROTOCOL NOTES: Displacement of [3H]prazosin from adrenergic alpha-1 receptor in porcine cerebral cortex homogenate after 60 mins by scintillation counting analysis
# Type: tissue-based, Sus scrofa
Respond numerically; units are µM and should not be typed.

[[record]]
compound_structure = "CCCC#Cc1cc(CN2CCN(c3ccccc3OC)CC2)c2cccccc1-2"
unit_text = "µM"
recorded_value = 0.21

[[record]]
compound_structure = "COc1ccccc1N1CCN(Cc2cc(CN3CCOCC3)c3cccccc2-3)CC1"
unit_text = "µM"
recorded_value = 0.057

[[record]]
compound_structure = "COc1ccccc1N1CCN(Cc2cc(CN3CCN(C)CC3)c3cccccc2-3)CC1"
unit_text = "µM"
recorded_value = 0.066

[[record]]
compound_structure = "COc1ccccc1N1CCN(Cc2cc(CO)c3cccccc2-3)CC1"
unit_text = "µM"
recorded_value = 0.057

[[record]]
compound_structure = "COc1ccccc1N1CCN(Cc2cc(C#N)c3cccccc2-3)CC1"
unit_text = "µM"
recorded_value = 0.031


stdin: Report Ki for COc1ccccc1N1CCN(Cc2cc(CN(C)C)c3cccccc2-3)CC1
stdout: 0.033

stdin: Report Ki for COc1ccccc1N1CCN(Cc2ccc3cccccc2-3)CC1
stdout: 0.02

stdin: Report Ki for C#Cc1cc(CN2CCN(c3ccccc3OC)CC2)c2cccccc1-2
stdout: 0.23

stdin: Report Ki for COc1ccccc1N1CCN(Cc2cc(CN3CCCCC3)c3cccccc2-3)CC1
stdout: 0.032

stdin: Report Ki for COc1ccccc1N1CCN(Cc2cc(C#Cc3ccccc3)c3cccccc2-3)CC1
stdout: 0.37

stdin: Report Ki for COc1ccccc1N1CCN(Cc2cc(CN3CCN(c4ccccc4OC)CC3)c3cccccc2-3)CC1
stdout: 0.0083
